# Test system: HeLa
# protocol notes: Antiviral activity using H1HeLa cells (ATCC) infected with HRV-14 (range)
# Format: functional, cell-based
# condition label: Homo sapiens
endpoint label: pEC50
The quantity pEC50 is defined as the negative base-10 logarithm of the molar concentration.

Identify the measured pEC50 of CCOC(=O)c1ccc(OCCC2CCN(c3ccc(C)nn3)CC2)cc1 for HeLa.
7.70

====

# target of assay: Human rhinovirus A protease (Human rhinovirus sp., UniProt Q4U254)
# Sequence (Q4U254 whole entry): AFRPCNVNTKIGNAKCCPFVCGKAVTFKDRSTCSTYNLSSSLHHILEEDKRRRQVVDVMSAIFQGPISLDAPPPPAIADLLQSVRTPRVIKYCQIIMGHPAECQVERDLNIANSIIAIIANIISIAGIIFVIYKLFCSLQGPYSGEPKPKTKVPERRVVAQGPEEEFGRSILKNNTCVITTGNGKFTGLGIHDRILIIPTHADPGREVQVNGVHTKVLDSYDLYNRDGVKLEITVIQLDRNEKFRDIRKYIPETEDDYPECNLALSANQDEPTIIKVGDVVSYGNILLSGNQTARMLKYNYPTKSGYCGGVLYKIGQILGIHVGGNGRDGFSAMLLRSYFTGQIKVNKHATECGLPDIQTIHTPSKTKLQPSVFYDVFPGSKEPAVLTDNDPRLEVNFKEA
# protocol notes: The compound was tested for binding affinity of Human Rhinovirus (HRV) 3C Protease.
endpoint label: Ki
A complete answer gives the number followed by the unit.

Identify the measured Ki of NC(=O)c1cccc(/C=C/C(=O)c2ccccc2)c1 for Human rhinovirus A protease (Human rhinovirus sp., UniProt Q4U254).
0.4 µM

Identify the measured Ki of NC(=O)c1cccc(/C=C/C(=O)c2ccccn2)c1 for Human rhinovirus A protease (Human rhinovirus sp., UniProt Q4U254).
1.8 µM

Identify the measured Ki of CC(=O)/C=C/c1cccc(C(N)=O)c1 for Human rhinovirus A protease (Human rhinovirus sp., UniProt Q4U254).
25 µM

Identify the measured Ki of CN(C)c1ccc(C(=O)/C=C/c2cccc(C(N)=O)c2)cc1 for Human rhinovirus A protease (Human rhinovirus sp., UniProt Q4U254).
9 µM

Identify the measured Ki of NC(=O)c1ccc2c(c1)C=CC2=O for Human rhinovirus A protease (Human rhinovirus sp., UniProt Q4U254).
0.12 µM

Identify the measured Ki of NC(=O)c1cccc(/C=C/C(=O)c2ccco2)c1 for Human rhinovirus A protease (Human rhinovirus sp., UniProt Q4U254).
1.9 µM

Identify the measured Ki of COc1ccc(C(=O)/C=C/c2cccc(C(N)=O)c2)cc1 for Human rhinovirus A protease (Human rhinovirus sp., UniProt Q4U254).
1.8 µM
